Reported purity values for the following compounds.
# assay_details: Stability test (purity and XRPD pattern after 30 days storage)
# Assay type: physicochemical
# condition_parameters: day 30 under illumination

Take a look at these entries with their results.
>>> print(df.to_string())
                                   compound  reported_measurement
0  Cc1cc(Nc2cc(C)[nH]n2)nc(N2CC3CCC(C2)N3C(=O)c2ccc(-n3cc(F)cn3)nn2)n1 [amorphous form, reference compound]                 94.37
1  Cc1cc(Nc2cc(C)[nH]n2)nc(N2CC3CCC(C2)N3C(=O)c2ccc(-n3cc(F)cn3)nn2)n1 [crystal form D]                 98.23
2  Cc1cc(Nc2cc(C)[nH]n2)nc(N2CC3CCC(C2)N3C(=O)c2ccc(-n3cc(F)cn3)nn2)n1 [crystal form E]                 98.65

Query string: What purity value was documented for this compound, Cc1cc(Nc2cc(C)[nH]n2)nc(N2CC3CCC(C2)N3C(=O)c2ccc(-n3cc(F)cn3)nn2)n1 [crystal form B] ?
Result string: 98.56

Query string: I am curious: what purity value has been reported for Cc1cc(Nc2cc(C)[nH]n2)nc(N2CC3CCC(C2)N3C(=O)c2ccc(-n3cc(F)cn3)nn2)n1 [crystal form A] ?
Result string: 98.88

Query string: Item under review: Cc1cc(Nc2cc(C)[nH]n2)nc(N2CC3CCC(C2)N3C(=O)c2ccc(-n3cc(F)cn3)nn2)n1 [crystal form C] . Reported purity?
Result string: 98.22

---

The following compounds are shown together with reported D90 (granularity) values.
# assay_details: Granularity test
# Format: physicochemical
# Excerpt: […]
Give me the value, and tack the unit on after it.

>>> df
                                   compound         observable  reported_measurement
0  Cc1cc(Nc2cc(C)[nH]n2)nc(N2CC3CCC(C2)N3C(=O)c2ccc(-n3cc(F)cn3)nn2)n1 [crystal form C]  D90 (granularity)              79.47 μm
1  Cc1cc(Nc2cc(C)[nH]n2)nc(N2CC3CCC(C2)N3C(=O)c2ccc(-n3cc(F)cn3)nn2)n1 [crystal form A]  D90 (granularity)              95.11 μm
2  Cc1cc(Nc2cc(C)[nH]n2)nc(N2CC3CCC(C2)N3C(=O)c2ccc(-n3cc(F)cn3)nn2)n1 [crystal form E]  D90 (granularity)              75.89 μm

Query string: Looking for the measured D90 (granularity) of Cc1cc(Nc2cc(C)[nH]n2)nc(N2CC3CCC(C2)N3C(=O)c2ccc(-n3cc(F)cn3)nn2)n1 [amorphous form, reference compound] , can you help?
Result string: 18.45 μm

Query string: D90 (granularity) for Cc1cc(Nc2cc(C)[nH]n2)nc(N2CC3CCC(C2)N3C(=O)c2ccc(-n3cc(F)cn3)nn2)n1 [crystal form B] ?
Result string: 86.77 μm

Query string: Recorded D90 (granularity) of Cc1cc(Nc2cc(C)[nH]n2)nc(N2CC3CCC(C2)N3C(=O)c2ccc(-n3cc(F)cn3)nn2)n1 [crystal form D] , please.
Result string: 83.56 μm

---

# assay_details: Fluidity test (angle of repose)
# Type: physicochemical
# condition_parameters: measurement 1
The reader will find reported angle of repose values listed item by item below.
Write the number in ° without appending the unit.

Recorded angle of repose, per entry:
>>> df
                                   compound  reported_measurement
0  Cc1cc(Nc2cc(C)[nH]n2)nc(N2CC3CCC(C2)N3C(=O)c2ccc(-n3cc(F)cn3)nn2)n1 [crystal form A]                  32.5
1  Cc1cc(Nc2cc(C)[nH]n2)nc(N2CC3CCC(C2)N3C(=O)c2ccc(-n3cc(F)cn3)nn2)n1 [crystal form B]                  33.4

Query string: Entry Cc1cc(Nc2cc(C)[nH]n2)nc(N2CC3CCC(C2)N3C(=O)c2ccc(-n3cc(F)cn3)nn2)n1 [crystal form E] has what angle of repose?
Result string: 34.2

Query string: Item Cc1cc(Nc2cc(C)[nH]n2)nc(N2CC3CCC(C2)N3C(=O)c2ccc(-n3cc(F)cn3)nn2)n1 [amorphous form, reference compound] has what recorded angle of repose?
Result string: 43.8

Query string: Endpoint output: angle of repose of Cc1cc(Nc2cc(C)[nH]n2)nc(N2CC3CCC(C2)N3C(=O)c2ccc(-n3cc(F)cn3)nn2)n1 [crystal form C] . Value?
Result string: 33.8

Query string: Sample Cc1cc(Nc2cc(C)[nH]n2)nc(N2CC3CCC(C2)N3C(=O)c2ccc(-n3cc(F)cn3)nn2)n1 [crystal form D] — what was its angle of repose?
Result string: 33.0

---

# assay_details: Granularity test
# Type: physicochemical
Catalogue of D50 (granularity) readings, one per entry.
Your answer should be a plain number; it is taken to be in μm.

# count of solved cases: 5
In [3]: df
Out[3]:
                                   compound  reported_measurement
0  Cc1cc(Nc2cc(C)[nH]n2)nc(N2CC3CCC(C2)N3C(=O)c2ccc(-n3cc(F)cn3)nn2)n1 [amorphous form, reference compound]                  3.52
1  Cc1cc(Nc2cc(C)[nH]n2)nc(N2CC3CCC(C2)N3C(=O)c2ccc(-n3cc(F)cn3)nn2)n1 [crystal form B]                 32.53
2  Cc1cc(Nc2cc(C)[nH]n2)nc(N2CC3CCC(C2)N3C(=O)c2ccc(-n3cc(F)cn3)nn2)n1 [crystal form A]                 38.62
3  Cc1cc(Nc2cc(C)[nH]n2)nc(N2CC3CCC(C2)N3C(=O)c2ccc(-n3cc(F)cn3)nn2)n1 [crystal form C]                 31.58
4  Cc1cc(Nc2cc(C)[nH]n2)nc(N2CC3CCC(C2)N3C(=O)c2ccc(-n3cc(F)cn3)nn2)n1 [crystal form E]                 30.36

Query string: Reported D50 (granularity) for Cc1cc(Nc2cc(C)[nH]n2)nc(N2CC3CCC(C2)N3C(=O)c2ccc(-n3cc(F)cn3)nn2)n1 [crystal form D] : what is it?
Result string: 33.64

---

# assay_details: Stability test (purity and XRPD pattern after 30 days storage)
# Assay type: physicochemical
# condition_parameters: day 0
observable: purity
// print number alone

Would you please look over these solved cases?
                                   molecule  reported_measurement
0  Cc1cc(Nc2cc(C)[nH]n2)nc(N2CC3CCC(C2)N3C(=O)c2ccc(-n3cc(F)cn3)nn2)n1 [crystal form C]                 99.75
1  Cc1cc(Nc2cc(C)[nH]n2)nc(N2CC3CCC(C2)N3C(=O)c2ccc(-n3cc(F)cn3)nn2)n1 [crystal form A]                 99.85
2  Cc1cc(Nc2cc(C)[nH]n2)nc(N2CC3CCC(C2)N3C(=O)c2ccc(-n3cc(F)cn3)nn2)n1 [crystal form B]                 99.80
3  Cc1cc(Nc2cc(C)[nH]n2)nc(N2CC3CCC(C2)N3C(=O)c2ccc(-n3cc(F)cn3)nn2)n1 [crystal form D]                 99.60
4  Cc1cc(Nc2cc(C)[nH]n2)nc(N2CC3CCC(C2)N3C(=O)c2ccc(-n3cc(F)cn3)nn2)n1 [crystal form E]                 99.76

Query string: Field request: purity | item: Cc1cc(Nc2cc(C)[nH]n2)nc(N2CC3CCC(C2)N3C(=O)c2ccc(-n3cc(F)cn3)nn2)n1 [amorphous form, reference compound]
Result string: 96.77

---

# assay_details: Hygroscopicity test
# Format: physicochemical
# condition_parameters: 75% RH and 25° C. for 24 h
Param label: returns t when hygroscopicity < 0.06%, returns f otherwise, including exact equality.

In [3]: df
Out[3]:
                                   compound  category_label
0  Cc1cc(Nc2cc(C)[nH]n2)nc(N2CC3CCC(C2)N3C(=O)c2ccc(-n3cc(F)cn3)nn2)n1 [crystal form E]               t
1  Cc1cc(Nc2cc(C)[nH]n2)nc(N2CC3CCC(C2)N3C(=O)c2ccc(-n3cc(F)cn3)nn2)n1 [crystal form D]               f
2  Cc1cc(Nc2cc(C)[nH]n2)nc(N2CC3CCC(C2)N3C(=O)c2ccc(-n3cc(F)cn3)nn2)n1 [amorphous form, reference compound]               f
3  Cc1cc(Nc2cc(C)[nH]n2)nc(N2CC3CCC(C2)N3C(=O)c2ccc(-n3cc(F)cn3)nn2)n1 [crystal form A]               t

Consider now this further compound.
Query string: Take the compound Cc1cc(Nc2cc(C)[nH]n2)nc(N2CC3CCC(C2)N3C(=O)c2ccc(-n3cc(F)cn3)nn2)n1 [crystal form B] and say whether its hygroscopicity is less than 0.06%.
Result string: t
